Target: T1, 4H918-bA
T1 chain: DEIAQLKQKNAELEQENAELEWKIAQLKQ
Assay: two-hybrid library CCNG1;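 note: natural log of median RNA to DNA barcode read ratio; higher means stronger binding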
Recorded interaction score determines the label; the label ranges are bucket A: < -1; bucket B: ≥ -1 and < -0.4; bucket C: ≥ -0.4

Challenge: Exercise: read the entry DKIAQLKQEIAELKQEIAELEWENAQLEQ [4H2627-bA] and state which class it falls under.
Response given: bucket A

Challenge: Could you tell me which band DEIAQLEQKIAELKQENAELEWEIAQLKQ [4H338-bA] belongs to?
Response given: bucket A

Challenge: Record DEIAQLKQKNAELEQEIAELKWENAQLKQ [4H908-bA] — which class?
Response given: bucket C

More entries:
Challenge: Input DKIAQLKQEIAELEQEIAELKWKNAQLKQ [4H2576-bA] ; output its category
Response given: bucket B

Challenge: Returns: class label. Input: DEIAQLEQEIAELKQKIAELKWKNAQLKQ [4H112-bA]
Response given: bucket A

Challenge: For this binder, which bin applies? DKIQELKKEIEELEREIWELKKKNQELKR [4H2576-bH]
Response given: bucket C
